B1: GMCL1 (parent)
chain: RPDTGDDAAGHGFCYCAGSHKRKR

Variants of: B1
Assay: protein stability index of a GFP-peptide fusion (GPS, HEK-293T) (PSI 1-6); higher = more stable;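 note: lentivirally expressed fusions sorted by FACS into six bins by GFP to DsRed ratio, PSI derived from sequencing read proportions per bin multiplied by bin number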
Settings: c terminus: a fixed tail appended
quantity name: protein stability index

> print(dat)
    mutation.code            quantity.name   val
 1           F13P  protein stability index  3.55
 2           R24I  protein stability index  3.33
 3           A17T  protein stability index  3.13
 4           R24N  protein stability index  3.84
 5            A8R  protein stability index  3.08
 6            P2T  protein stability index   2.3
 7            T4H  protein stability index  3.11
 8           G10A  protein stability index  2.86
 9           R22F  protein stability index  1.96
10           A17N  protein stability index  3.61
11            T4K  protein stability index  3.14
12           Y15W  protein stability index  2.82
13            A9I  protein stability index  2.65
14           Y15E  protein stability index  2.77
15           A17K  protein stability index  2.82
16           S19C  protein stability index  3.82
17           G10S  protein stability index  2.95
18            A9C  protein stability index  3.89
19            T4A  protein stability index  3.06
20            A9Q  protein stability index  3.06
21           G18Q  protein stability index  3.12
22           C16P  protein stability index  4.71
23            P2S  protein stability index  2.95
24           S19H  protein stability index  2.77
25            A8K  protein stability index  2.94
26           H20A  protein stability index  3.15
27           C14I  protein stability index   4.3
28           Y15D  protein stability index  3.36
29           G18R  protein stability index  3.29
30            D6K  protein stability index  3.27
31           H20T  protein stability index  3.05
32           C14L  protein stability index  3.66
33           G10C  protein stability index  2.78
34            P2W  protein stability index   3.4
35            R1M  protein stability index  3.16
36           H20N  protein stability index  3.04
37           R24T  protein stability index  3.04
